The measured values listed here are drawn from ChEMBL document CHEMBL3991601.

target: Tyrosine-protein kinase ABL1 (Homo sapiens, UniProt P00519); further: in the data inactive means no Kd found up to 30 µM
Sequence (P00519 whole entry): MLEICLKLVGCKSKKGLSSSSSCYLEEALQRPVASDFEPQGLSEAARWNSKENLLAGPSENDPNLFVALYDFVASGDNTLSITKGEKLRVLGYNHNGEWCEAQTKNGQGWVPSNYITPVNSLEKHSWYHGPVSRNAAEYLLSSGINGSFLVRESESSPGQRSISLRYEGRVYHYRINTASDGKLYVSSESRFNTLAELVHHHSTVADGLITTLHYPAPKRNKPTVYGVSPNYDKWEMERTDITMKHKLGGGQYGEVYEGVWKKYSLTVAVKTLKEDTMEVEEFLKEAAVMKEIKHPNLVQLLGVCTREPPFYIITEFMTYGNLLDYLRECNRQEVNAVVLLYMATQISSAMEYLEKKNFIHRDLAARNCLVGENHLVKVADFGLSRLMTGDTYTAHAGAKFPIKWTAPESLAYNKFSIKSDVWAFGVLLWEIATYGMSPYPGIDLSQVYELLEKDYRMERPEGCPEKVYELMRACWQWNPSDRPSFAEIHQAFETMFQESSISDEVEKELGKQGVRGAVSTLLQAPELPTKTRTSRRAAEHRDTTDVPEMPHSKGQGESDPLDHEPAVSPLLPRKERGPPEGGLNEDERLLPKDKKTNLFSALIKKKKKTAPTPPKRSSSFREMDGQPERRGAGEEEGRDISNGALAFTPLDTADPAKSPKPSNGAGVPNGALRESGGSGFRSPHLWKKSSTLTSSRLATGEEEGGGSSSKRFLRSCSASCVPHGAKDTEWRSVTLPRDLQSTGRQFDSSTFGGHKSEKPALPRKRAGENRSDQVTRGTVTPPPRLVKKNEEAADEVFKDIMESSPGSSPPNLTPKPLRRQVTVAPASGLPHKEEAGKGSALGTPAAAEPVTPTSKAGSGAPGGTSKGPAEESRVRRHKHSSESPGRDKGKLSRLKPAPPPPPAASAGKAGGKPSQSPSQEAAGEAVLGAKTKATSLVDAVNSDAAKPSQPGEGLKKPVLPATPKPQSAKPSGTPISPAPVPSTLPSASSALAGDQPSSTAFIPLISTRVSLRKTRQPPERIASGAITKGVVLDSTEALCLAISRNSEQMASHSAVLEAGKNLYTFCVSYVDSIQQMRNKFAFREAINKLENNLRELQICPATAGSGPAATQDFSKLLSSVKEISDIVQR
Calls of active or inactive are those of the source.
Outcome codes: active, inactive

# Smiles code, Group label
rows = [
    ("O=C(Nc1nc2cccc(-c3ccc(CN4CCS(=O)(=O)CC4)cc3)n2n1)C1CC1", "inactive"),
    ("COc1ccc(S(=O)(=O)N(C(C)=O)c2ccccc2/C=C/c2cc[n+]([O-])cc2)cc1", "inactive"),
    ("CN(C[C@@H]1COCCO1)S(=O)(=O)Nc1ccc2ccc3ncc(-c4cnn(C)c4)cc3c(=O)c2c1", "inactive"),
    ("CCS(=O)(=O)c1cccc(-c2cc(C(=O)NC3CCN(C)CC3)c(C)c3[nH]c4ncc(C)cc4c23)c1", "active"),
    ("COCc1c(-c2ccc(NC(=O)Nc3cc(C(F)(F)F)ccc3F)c(F)c2)c2c(N)ncnn2c1CN1CCOCC1", "inactive"),
]
